Consider the following molecules; for each one, report its cell viability.
Test system: MARIMO;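 note: after 48 h exposure read by CellTiter-Glo luminescence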
Test: cell viability relative to vehicle control; higher = less cytotoxic
Conditions: 10 µM; SRSF2 genotype: SRSF2 P95H/wt
Hey, just the number and the unit after it is fine.

Below are some molecules; for each one, tell me its cell viability.
1. Fc1ccc2[nH]ccc2c1-c1nc(N2CCOCC2)c2sc(CN3CCN(CC4CC4)CC3)cc2n1
2. CS(=O)(=O)c1cccc(CNc2nc(Nc3ccc4c(c3)CCC(=O)N4)ncc2C(F)(F)F)c1
3. Nc1nc(F)nc2c1ncn2[C@@H]1O[C@H](CO)[C@@H](O)[C@@H]1O
4. CN(C)C(=O)c1ccc(S(=O)(=O)c2ccc(NC(=O)C(C)(O)C(F)(F)F)c(Cl)c2)cc1 (configuration not stated)
5. Oc1ccc(Nc2nc(-c3ccc(Cl)cc3)cs2)cc1
6. C[C@@H]1C(=O)O[C@H]2C[C@@]34[C@H]5C[C@@H](C(C)(C)C)[C@]36[C@@H](OC(=O)[C@@H]6O)O[C@@]4(C(=O)O5)[C@]21O [Ginkgolide A]
7. C[C@@H](N)c1ccc(C(=O)Nc2ccnc3[nH]ccc23)cc1

["68.5%", "49.7%", "64.5%", "60.1%", "38.8%", "101%", "65.8%"]
